Can you tell me TGI for the items I'm about to list?
# Test system: ACHN renal
# Method Description: NCI tumour cell line growth inhibition, 48 h

Query :: Report TGI for O=C(Nc1ccc(Cl)cc1)NS(=O)(=O)c1coc2ccccc2c1=O please.
Result :: > 10 µM

Query :: CC1=CC(=O)CC(C)(C)C1(O)/C=C/C(C)=C/C(=O)O (stereo not given) , same question.
Result :: > 100 µM

Query :: CN(C)CCCNC(=O)c1ccc2oc3cc4ccccc4c(=O)n3c2c1 , same question.
Result :: > 50 µM

Query :: C/C(=C/c1ccccc1)CN(C(=O)/C=C\Sc1ccccc1)C(C)(C)C , same question.
Result :: > 100 µM

Query :: N.N.N.N.O=NN1CCCCCC1(P(=O)([O-])[O-])P(=O)([O-])[O-].[Pt+4].[Pt+4] , same question.
Result :: > 100 µM
